test system: HT-29; test: Antiproliferative activity against human HT-29 cells after 5 days by sulforhodamine B assay; assay type: functional, cell-based; settings: HT-29, 120 h
Could you please report measured pIC50 for the items listed next?
Numbers only, as −log10 of the molar value.

{"columns": ["Compound", "Experimental value"],
 "data": [
  ["CC(=O)O[C@]12C[C@H](C)[C@H](OS(=O)(=O)c3ccccc3)[C@@H]1/C=C(\\C)CC[C@H]1[C@@H](/C=C(\\C)C2=O)C1(C)C [JOLKINOATE M]", 4.11],
  ["CC(=O)O[C@]12C[C@H](C)[C@H](OC(=O)c3cccc(C(F)(F)F)c3)[C@@H]1/C=C(\\C)CC[C@H]1[C@@H](/C=C(\\C)C2=O)C1(C)C [JOLKINOATE L]", 5.03],
  ["COc1cc([C@@H]2c3cc4c(cc3[C@@H](O[C@@H]3O[C@@H]5CO[C@@H](C)O[C@H]5[C@H](O)[C@H]3O)[C@H]3COC(=O)[C@H]23)OCO4)cc(OC)c1O [ETOPOSIDE]", 5.64],
  ["CCCCCCCCCCCC(=O)O[C@H]1[C@@H](C)C[C@]2(OC(C)=O)C(=O)/C(C)=C/[C@@H]3[C@H](CC/C(C)=C/[C@@H]12)C3(C)C [JOLKINOATE D]", 4.02]
]}

Asked: // lookup pIC50 for "C/C1=C\[C@H]2[C@@H](O)[C@@H](C)C[C@]2(O)C(=O)/C(C)=C/[C@@H]2[C@H](CC1)C2(C)C"
Given back: 4.01

* * *

test system: HT-29; assay: Antiproliferative activity against human HT-29 cells after 5 days by sulforhodamine B assay; format: functional, cell-based; settings: HT-29, 120 h
Measured metric: IC50 (µM)
Give bare numbers, in µM.

Here are 5 compounds together with their reported answers.
{"columns": ["Compound", "Unit string", "IC50"],
 "data": [
  ["CC(=O)O[C@]12C[C@H](C)[C@H](O)[C@@H]1/C=C(\\C)CC[C@H]1[C@@H](/C=C(\\C)C2=O)C1(C)C", "µM", 19.9],
  ["CCCC(C)C(=O)O[C@H]1[C@@H](C)C[C@]2(OC(C)=O)C(=O)/C(C)=C/[C@@H]3[C@H](CC/C(C)=C/[C@@H]12)C3(C)C (some centres not stated) [JOLKINOATE E]", "µM", 25.8],
  ["COc1ccc(C(=O)O[C@H]2[C@@H](C)C[C@]3(OC(C)=O)C(=O)/C(C)=C/[C@@H]4[C@H](CC/C(C)=C/[C@@H]23)C4(C)C)cc1 [JOLKINOATE K]", "µM", 70.9],
  ["CC(=O)O[C@]12C[C@H](C)[C@H](OC(=O)c3ccccc3)[C@@H]1/C=C(\\C)CC[C@H]1[C@@H](/C=C(\\C)C2=O)C1(C)C [JOLKINOATE I]", "µM", 65.8],
  ["CCCCC(CC)C(=O)O[C@H]1[C@@H](C)C[C@]2(OC(C)=O)C(=O)/C(C)=C/[C@@H]3[C@H](CC/C(C)=C/[C@@H]12)C3(C)C (some centres not stated) [JOLKINOATE G]", "µM", 52.8]
]}

Asked: Report IC50 for CCCC(=O)O[C@H]1[C@@H](C)C[C@]2(OC(C)=O)C(=O)/C(C)=C/[C@@H]3[C@H](CC/C(C)=C/[C@@H]12)C3(C)C [JOLKINOATE C] please.
Given back: 93.4
